experiment: H69AR cell proliferation blockers – human, duplicate replicates, primary screen (AID 580); conditions: H69AR lung tumor cells viability, ATP luminescence, 72 h; at 10 µM; active compounds read low;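 also: 100% = mean luminescence of untreated wells and 0% = no signal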
Measured Endpoint: viability (%)
# output: bare number, implied unit %

I would be grateful if you could share the reported viability for CCOC(=O)N1CCC(NC(=O)c2cc3c(=O)n(C)c4ccccc4c3n2C)CC1 .
73.1

Check CN(C(=O)c1ccco1)c1nnc(C23CC4CC(CC(C4)C2)C3)s1 too.
75.9

Check CC1CCN(c2oc(-c3ccccc3F)nc2C#N)CC1 too.
92

Check COc1cccc2cc(C(=O)N3CCN(c4ccc(C)cc4C)CC3)c(=O)oc12 too.
96.5

Check CCN1CCN(c2ncnc3c2cnn3-c2ccc(C)cc2C)CC1 too.
73.7

Check CCC(=O)Oc1ccc2c(C)cc(=O)oc2c1C too.
90.6

Check CCCCC(=O)NCCc1cc2c(C)ccc(C)c2[nH]c1=O too.
85.1

Check COc1ccccc1N1C(=O)CCC1(C#N)c1ccccc1 (stereo unspecified) too.
117

Check COCCCN1C(=O)C(=O)/C(=C(/O)c2ccc(OCC(C)C)cc2C)C1c1cccnc1 (stereo unspecified) too.
98.1

Check COC(=O)C(C#N)C(=C1C(=O)CC(C)(C)CC1=O)c1ccc(O)cc1 (stereo unspecified) too.
92

Check CN(C)CCNc1oc(-c2ccccc2F)nc1C#N too.
105
